Target: CFTR (Homo sapiens, UniProt P13569)
Sequence (P13569 with tags, fused parts or gaps DEL508-508): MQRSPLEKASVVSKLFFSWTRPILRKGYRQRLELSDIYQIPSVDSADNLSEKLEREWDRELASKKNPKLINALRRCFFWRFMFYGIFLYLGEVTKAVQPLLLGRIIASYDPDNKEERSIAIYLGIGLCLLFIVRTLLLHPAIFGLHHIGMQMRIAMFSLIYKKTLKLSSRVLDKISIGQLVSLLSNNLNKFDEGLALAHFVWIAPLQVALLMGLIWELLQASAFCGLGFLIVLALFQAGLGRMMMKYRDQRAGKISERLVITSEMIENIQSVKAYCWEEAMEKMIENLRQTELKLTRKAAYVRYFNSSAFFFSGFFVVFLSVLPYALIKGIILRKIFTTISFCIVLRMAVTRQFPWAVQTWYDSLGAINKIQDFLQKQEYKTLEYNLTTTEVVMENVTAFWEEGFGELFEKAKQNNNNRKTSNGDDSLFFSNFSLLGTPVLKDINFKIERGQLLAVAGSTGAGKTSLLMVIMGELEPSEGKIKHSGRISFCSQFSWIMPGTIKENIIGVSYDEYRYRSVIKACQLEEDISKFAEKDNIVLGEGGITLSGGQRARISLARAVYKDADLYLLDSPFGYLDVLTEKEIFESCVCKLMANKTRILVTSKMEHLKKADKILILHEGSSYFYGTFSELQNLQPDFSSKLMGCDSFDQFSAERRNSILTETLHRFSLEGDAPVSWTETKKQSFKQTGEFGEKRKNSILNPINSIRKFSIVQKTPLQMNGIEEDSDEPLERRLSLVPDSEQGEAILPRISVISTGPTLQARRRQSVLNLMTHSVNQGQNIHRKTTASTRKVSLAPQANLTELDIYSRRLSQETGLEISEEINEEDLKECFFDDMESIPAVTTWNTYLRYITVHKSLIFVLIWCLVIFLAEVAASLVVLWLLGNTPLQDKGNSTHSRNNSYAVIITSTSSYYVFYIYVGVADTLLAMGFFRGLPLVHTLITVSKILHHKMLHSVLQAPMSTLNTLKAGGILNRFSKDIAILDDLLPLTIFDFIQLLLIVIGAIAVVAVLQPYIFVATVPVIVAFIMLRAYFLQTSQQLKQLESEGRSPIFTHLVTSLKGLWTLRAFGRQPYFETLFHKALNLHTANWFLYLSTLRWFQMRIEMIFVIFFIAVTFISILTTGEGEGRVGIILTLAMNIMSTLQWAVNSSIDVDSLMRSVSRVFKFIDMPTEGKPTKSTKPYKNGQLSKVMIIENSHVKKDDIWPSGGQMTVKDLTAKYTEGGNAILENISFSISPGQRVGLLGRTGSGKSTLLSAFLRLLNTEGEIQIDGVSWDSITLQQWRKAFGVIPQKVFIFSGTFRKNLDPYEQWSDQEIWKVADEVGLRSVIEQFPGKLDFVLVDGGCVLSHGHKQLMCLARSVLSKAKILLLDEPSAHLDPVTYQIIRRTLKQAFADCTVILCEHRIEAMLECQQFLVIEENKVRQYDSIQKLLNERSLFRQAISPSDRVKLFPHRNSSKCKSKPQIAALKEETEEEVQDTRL
Assay: Membrane Potential Dye, Enteroid Assay A
Format: cell-based
Conditions: read-out: Ent. A EC50
Measured Endpoint: EC50

Cc1ccccc1-c1nc2nc(c1C(F)(F)F)OCC1CN(CCN1CCC1(C(F)(F)F)CC1)C(=O)c1cccc(c1)S(=O)(=O)N2 (centres unmarked) = 1000 to 3000 nM

Incoming: Retrieve EC50 measured for CCc1c2nc(nc1-c1c(C)cccc1C)NS(=O)(=O)c1cccc(c1)NC(=O)c1cccc(c1)O2 and print it.
Outgoing: 1000 to 3000 nM

Incoming: Retrieve EC50 measured for Cc1cccc(C)c1-c1nc2nc(c1OC(C)C)OC[C@@H](CC(C)C)NC(=O)c1cccc(c1)S(=O)(=O)N2 and print it.
Outgoing: < 1000 nM

Incoming: Retrieve EC50 measured for CCc1c2nc(nc1-c1c(C)ccc(OCCC(C)C)c1C)NS(=O)(=O)c1cccc(c1)NC(=O)c1cccc(c1)O2 and print it.
Outgoing: < 1000 nM

Incoming: Retrieve EC50 measured for CC(C)C[C@@H]1COc2nc(nc(-c3ccccc3C(C)C)c2C(F)(F)F)NS(=O)(=O)c2cccc(c2)C(=O)N1 and print it.
Outgoing: < 1000 nM

Incoming: Retrieve EC50 measured for CCc1c2nc(nc1-c1cccc(OCC(C)C)c1)NS(=O)(=O)c1cccc(c1)NC(=O)c1cccc(c1)O2 and print it.
Outgoing: < 1000 nM

Incoming: Retrieve EC50 measured for CCc1c2nc(nc1-c1ccccc1C(C)C)NS(=O)(=O)c1cccc(c1)NC(=O)c1cccc(c1)O2 and print it.
Outgoing: < 1000 nM

Incoming: Retrieve EC50 measured for CCc1c2nc(nc1-c1ccccc1C(C)C)NS(=O)(=O)c1cccc(c1)NC(=O)c1cccc(c1C)O2 and print it.
Outgoing: < 1000 nM

Incoming: Retrieve EC50 measured for Cc1cccc(C)c1-c1nc2nc(c1OC(C)C)OC[C@@H](CC(C)C)N(C1CC3(CCN(C(=O)OC(C)(C)C)CC3)C1)C(=O)c1cccc(c1)S(=O)(=O)N2 and print it.
Outgoing: < 1000 nM

Incoming: Retrieve EC50 measured for Cc1cccc(C)c1-c1nc2nc(c1OC(C)C)OC[C@@H](CC(C)C)N(C1CC3(CCN(C)CC3)C1)C(=O)c1cccc(c1)S(=O)(=O)N2 and print it.
Outgoing: < 1000 nM

Incoming: Retrieve EC50 measured for CCc1c2nc(nc1-c1c(C)cccc1C)NS(=O)(=O)c1cccc(c1)C(=O)N(C1CC3(CCN(C)CC3)C1)[C@H](CC(C)C)CO2 and print it.
Outgoing: < 1000 nM

Incoming: Retrieve EC50 measured for Cc1ccccc1-c1nc2nc(c1C(F)(F)F)OC1CN(Cc3ccccc31)C(=O)c1cccc(c1)S(=O)(=O)N2 (centres unmarked) and print it.
Outgoing: < 1000 nM

Incoming: Retrieve EC50 measured for Cc1ccccc1-c1nc2nc(c1C(F)(F)F)OCC1CN(C)CCN1C(=O)c1cccc(c1)S(=O)(=O)N2 (centres unmarked) and print it.
Outgoing: 3000 to 30000 nM

Incoming: Retrieve EC50 measured for CCc1c2nc(nc1-c1c(C)cccc1OC)NS(=O)(=O)c1cccc(c1)NC(=O)c1cccc(c1)O2 and print it.
Outgoing: 1000 to 3000 nM

====

Molecular target: CFTR (Homo sapiens)
Experiment: Membrane Potential Dye, Enteroid Assay B
Assay type: cell-based
Measured Endpoint: Ent. B Max Activity

The cases that follow already have their Ent. B Max Activity on record.
Cc1cccc(C)c1-c1nc2nc(c1C)O[C@@H]1CN(C3CC4(CCCCC4)C3)C[C@H]1NC(=O)c1cccc(c1)S(=O)(=O)N2 = +++ (+++ is >60%)
Cc1cccc(C)c1-c1nc2nc(c1C#N)OC[C@@H](CC(C)C)N(C1CC3(CC3)C1)C(=O)c1cccc(c1)S(=O)(=O)N2 = ++ (++ is 30-60%)
Cc1cccc(C)c1-c1nc2nc(c1C)OC[C@@H](CC1(C(F)(F)F)CC1)N(C1CC3(CC(NC(=O)OC(C)C)C3)C1)C(=O)c1cccc(c1)S(=O)(=O)N2 (stereo in doubt) [Compound 87] = +++ (+++ is >60%)
COc1ccc(-c2c3nc(nc2-c2c(C)cccc2C)NS(=O)(=O)c2cccc(c2)C(=O)N[C@H](C)CO3)cc1 = +++ (+++ is >60%)
COc1c2nc(nc1-c1c(C)cccc1C)NS(=O)(=O)c1cccc(c1)C(=O)N[C@H](CC(C)C)CO2 = +++ (+++ is >60%)

Incoming: Retrieve Ent. B Max Activity measured for Cc1cccc(C)c1-c1nc2nc(c1C1=CCN(C(=O)OC(C)(C)C)CC1)OC[C@@H](C)NC(=O)c1cccc(c1)S(=O)(=O)N2 and print it.
Outgoing: ++ (++ is 30-60%)

Incoming: Retrieve Ent. B Max Activity measured for Cc1cccc(C)c1-c1nc2nc(c1C)OC[C@@H](C)N(C1CC3(CC(NC(=O)OC(C)(C)C)C3)C1)C(=O)c1cccc(c1)S(=O)(=O)N2 (stereo partly drawn) and print it.
Outgoing: ++ (++ is 30-60%)

====

Known EC50 of a selection of compounds
Molecular target: CFTR (Homo sapiens, UniProt P13569)
Assay: Membrane Potential Dye, Enteroid Assay B
Assay type: cell-based
Conditions: read-out: Ent. B EC50

The cases that follow already have their EC50 on record.
Cc1cccc(C)c1-c1nc2nc(c1C)OC[C@@H](CC(C)(C)C)N(C1CC3(CC(CO)C3)C1)C(=O)c1cccc(c1)S(=O)(=O)N2 (stereo in doubt) [Compound 78] = < 1000 nM
Cc1cccc(C)c1-c1nc2nc(c1C)OC[C@@H](CCC(C)(C)O)N(CCCC(C)(C)O)C(=O)c1cccc(c1)S(=O)(=O)N2 [Compound 109] = 3000 to 30000 nM

Could you now consider this next compound?
Incoming: Retrieve EC50 measured for Cc1cccc(C)c1-c1nc2nc(c1OC(C)C)OC[C@@H](CC(C)C)N(C1CC3(CC3)C1)C(=O)c1cccc(c1)S(=O)(=O)N2 [Compound 189] and print it.
Outgoing: < 1000 nM

====

Target: CFTR (Homo sapiens)
Assay: Membrane Potential Dye, Enteroid Assay B
Assay type: cell-based
Measured Endpoint: Ent. B Max Activity

Cc1cccc(C)c1-c1nc2nc(c1C)OC(c1ccc(CC3(C(F)(F)F)CC3)cn1)CN(C)C(=O)c1cccc(c1)S(=O)(=O)N2 (stereo not drawn) [Compound 205] = +++ (+++ is >60%)
Cc1cccc(C)c1-c1nc2nc(c1C)OC[C@@H](CC1(C(F)(F)F)CC1)N(C1CC3(CC(NC(=O)OC(C)(C)C)C3)C1)C(=O)c1cccc(c1)S(=O)(=O)N2 (stereo in doubt) [Compound 97] = +++ (+++ is >60%)

====

Known pEC50 of a selection of compounds
Molecular target: CFTR (Homo sapiens, UniProt P13569)
Test: Membrane Potential Dye, Enteroid Assay B
Assay type: cell-based
Conditions: read-out: Ent. B EC50
pEC50: −log10 of the molar value.

Incoming: Send back CFTR (Homo sapiens, UniProt P13569) pEC50 of Cc1cccc(C)c1-c1nc2nc(c1C)OC[C@@H](CC(C)C)N([C@H]1C[C@@H](OC(C)C)C1)C(=O)c1cccc(c1)S(=O)(=O)N2 (single isomer, unassigned) [Compound 47] only.
Outgoing: > 6.00

Incoming: Send back CFTR (Homo sapiens, UniProt P13569) pEC50 of Cc1cccc(C)c1-c1nc2nc(c1C)OC[C@@H](CC(C)(C)C(F)(F)F)N(C1CC3(CCN(C(=O)OC(C)C)CC3)C1)C(=O)c1cccc(c1)S(=O)(=O)N2 only.
Outgoing: > 6.00

====

Molecular target: CFTR (Homo sapiens, UniProt P13569)
Experiment: Membrane Potential Dye, Enteroid Assay A
Assay type: cell-based
Conditions: read-out: Ent. A EC50
Measured Endpoint: EC50

The cases that follow already have their EC50 on record.
CC(C)Oc1cccc(-c2nc3nc(c2C(F)(F)F)OC2CN(Cc4ccccc42)C(=O)c2cccc(c2)S(=O)(=O)N3)c1 (stereo not drawn) = < 1 µM
CCc1c2nc(nc1-c1ccccc1C(C)C)NS(=O)(=O)c1cccc(c1)NC(=O)c1cc(ccc1Cl)O2 = < 1 µM

Incoming: Retrieve EC50 measured for CCc1c2nc(nc1-c1cccc(OC(C)C)c1)NS(=O)(=O)c1cccc(c1)NC(=O)c1cccc(c1)O2 and print it.
Outgoing: 1 to 3 µM

====

Biological target: CFTR (Homo sapiens, UniProt P13569)
Experiment: Membrane Potential Dye, Enteroid Assay B
Format: cell-based
Protocol: Base medium (ADF+++) consisted of Advanced DMEM/Ham's F12, 2 mM Glutamax, 10 mM HEPES, 1 µg/mL penicillin/streptomycin. […] Enteroid cells were incubated with test compound in IEMM for 18-24 hours at 37° C., 95% humidity and 5% CO2. […] Chloride transport was initiated by addition of Chloride Free Dye Stimulation Solution and the fluorescence signal was read for 15 min. […]
Measured Endpoint: Ent. B Max Activity

Cc1cccc(C)c1-c1nc2nc(c1C)OC[C@@H](CC(C)(C)O)N(Cc1ccc(C(C)(C)O)cc1)C(=O)c1cccc(c1)S(=O)(=O)N2 [Compound 114] = +++ (+++ is >60%)
Cc1cccc(C)c1-c1nc2nc(c1C)OC[C@@H](CC1(C(F)(F)F)CC1)N(C1CC3(CC(N)C3)C1)C(=O)c1cccc(c1)S(=O)(=O)N2 (some centres unmarked) [Compound 92] = +++ (+++ is >60%)
COC1CC(N2C(=O)c3cccc(c3)S(=O)(=O)Nc3nc(c(C)c(-c4c(C)cccc4C)n3)OC[C@H]2CC(C)C)C1 (stereo in doubt) [Compound 71] = +++ (+++ is >60%)

# credit: patent US20230374038A1
